# credit: patent US20230159453A1

target: SARS2 protease (Severe acute respiratory syndrome coronavirus 2, UniProt P0DTD1); test: SARS-CoV-2 protease inhibition assay (SARS2 FRET protease assay); assay type: biochemical; details: SARS-CoV-2 protease 25 nM, FRET, peptide substrate 1.3 μM, 30 minutes at 30° C., compounds 20 μM to 1.0 nM; read-out: IC50
pIC50: −log10 of the molar value.
Quick list: pIC50 per entry.

{"molecule": "COc1cccc(CC2(OC(=O)N[C@@H](CC(C)C)C(=O)N[C@@H](C[C@@H]3CCNC3=O)C(O)S(=O)(=O)O)CC2)c1 (stereo partly shown) [Compound C49]", "pIC50": 6.58}
{"molecule": "CC(C)C[C@H](NC(=O)OC(c1ccccc1)C(C)(C)c1cccc(Cl)c1)C(=O)N[C@@H](C[C@@H]1CCNC1=O)C(=O)C(=O)N1CCN(C(=O)OC(C)(C)C)CC1 (stereo partly shown) [Compound C261]", "pIC50": 4.77}
{"molecule": "CC(C)(c1cccc(Cl)c1)C(OC(=O)N[C@@H](CC1CCCCC1)C(=O)N[C@@H](C[C@@H]1CCNC1=O)C(=O)CO)c1ccccc1 (stereo partly shown) [Compound C273]", "pIC50": 5.27}
{"molecule": "O=C(N[C@@H](CC1CCCCC1)C(=O)NC(CC1CC2(CCC2)NC1=O)C(=O)C(=O)NC1CC1)OCc1cccc(Cl)c1 (stereo partly shown) [Compound C290]", "pIC50": 6.29}
{"molecule": "CC(C)C[C@H](NC(=O)OC(C)Cc1ccccc1)C(=O)N[C@H](C=O)C[C@@H]1CCNC1=O (stereo partly shown) [Compound C39]", "pIC50": 6.82}
{"molecule": "CC(C)C[C@H](NC(=O)OC(c1ccccc1)C(C)(C)c1cccc(Cl)c1)C(=O)N[C@@H](C[C@@H]1CCNC1=O)C(=O)C(=O)NCCN(C)C (stereo partly shown) [Compound C260]", "pIC50": 5.94}
{"molecule": "CC(C)C[C@H](NC(=O)OC(Cc1ccccc1)C(C)C)C(=O)N[C@H](C=O)C[C@@H]1CCNC1=O (stereo partly shown) [Compound C230]", "pIC50": 7.15}
{"molecule": "CC(C)C[C@H](NC(=O)OC(c1ccccc1)C(C)(C)c1cccc(Cl)c1)C(=O)N[C@@H](C[C@@H]1CCNC1=O)C(=O)C(N)=O (stereo partly shown) [Compound C207]", "pIC50": 6.50}
{"molecule": "O=CC(CC1CC2(CCC2)NC1=O)NC(=O)[C@H](CC1CCCCC1)NC(=O)OCc1cccc(Cl)c1 (stereo partly shown) [Compound C229]", "pIC50": 9.10}
{"molecule": "CC(C)(c1cccc(Cl)c1)C(OC(=O)N[C@@H](Cc1ccccc1)C(=O)N[C@@H](C[C@@H]1CCNC1=O)C(=O)C(=O)NC1CC1)c1ccccc1 (stereo partly shown) [Compound C284]", "pIC50": 5.80}
{"molecule": "COc1cccc(CC2(OC(=O)N[C@@H](CC(C)C)C(=O)N[C@H](C=O)C[C@@H]3CCNC3=O)CC2)c1 [Compound C42]", "pIC50": 6.45}
{"molecule": "CC1(C)CC(CC(NC(=O)[C@H](CC2CCCCC2)NC(=O)OC(Cc2cccc(Cl)c2)c2ccccc2)C(=O)C(N)=O)C(=O)N1 (stereo partly shown) [Compound C217]", "pIC50": 5.40}
{"molecule": "CC1(C)CC(CC(NC(=O)[C@H](CC2CCCCC2)NC(=O)OC(c2cccc(Cl)c2)C(C)(C)c2cccc(Cl)c2)C(=O)C(=O)NC2CC2)C(=O)N1 (stereo partly shown) [Compound C281]", "pIC50": 5.61}
